target: hGPVI-mL9-hFc substituted mutant protein (human) (UniProt Q9HCN6); assay: ELISA, immobilized hGPVI-mL9-hFc
measurement_label: absorbance

Quick one: absorbance for F1245-6-2 (antibody, from a related filing, V domains shown) VH: QVQLQQPGAELVKPGASVKLSCKASGYTFTSYWMHWVKQRPGQGLEWIGMIHPNSGSTNYNEKFKSKATLTVDKSSSTAYMQLSSLTSEDSAVYYCARGGVTPVAYWGQGTLVTVSA VL: SIVMTQTPKFLLVSAGDRVTITCKASQSVSNDVAWYQQKPGQSPKLLIYYASNRYTGVPYRFTGSGYGTDFTFTISTVQAEDLAVYFCQQDYSSPWTFGGGTKLEIKR ? < 0.5 od
